meta.source: patent US20240343803A1

- TARGET: T1, Fusion protein of extracellular domain of cynomolgus monkey TIGIT and mouse IgG2a Fc fragment (cynomolgus … (cynomolgus monkey))
- T1 construct: The entry includes the signal peptide (limits not recoverable) and the mouse IgG2a Fc
- T1 sequence (chain, as listed by the source limits assumed): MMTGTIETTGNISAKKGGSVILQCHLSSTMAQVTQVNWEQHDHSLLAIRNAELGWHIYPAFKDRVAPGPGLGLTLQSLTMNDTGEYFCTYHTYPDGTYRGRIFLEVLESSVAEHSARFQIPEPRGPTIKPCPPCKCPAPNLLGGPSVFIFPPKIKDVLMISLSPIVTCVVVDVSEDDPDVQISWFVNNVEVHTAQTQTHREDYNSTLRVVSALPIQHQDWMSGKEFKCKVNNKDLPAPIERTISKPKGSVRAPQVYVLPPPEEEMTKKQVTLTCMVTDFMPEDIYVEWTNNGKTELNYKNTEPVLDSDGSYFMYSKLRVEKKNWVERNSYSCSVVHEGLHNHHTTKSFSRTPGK
- METHOD: ELISA, cynomolgus monkey TIGIT ECD-mFc
PROPERTY: EC50 (nM)
Report as a plain number; the unit nM is understood.

TIGIT-006-H3L1 (antibody, V domains shown, Humanized anti-TIGIT antibody) VH: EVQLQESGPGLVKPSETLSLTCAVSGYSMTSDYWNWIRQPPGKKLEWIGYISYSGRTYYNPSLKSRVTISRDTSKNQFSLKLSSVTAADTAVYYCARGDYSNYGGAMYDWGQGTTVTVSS VL: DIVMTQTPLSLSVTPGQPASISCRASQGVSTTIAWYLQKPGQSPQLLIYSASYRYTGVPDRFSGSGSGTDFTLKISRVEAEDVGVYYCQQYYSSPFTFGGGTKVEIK	2.81
TIGIT-006-H5L3 (antibody, V domains shown, Humanized anti-TIGIT antibody) VH: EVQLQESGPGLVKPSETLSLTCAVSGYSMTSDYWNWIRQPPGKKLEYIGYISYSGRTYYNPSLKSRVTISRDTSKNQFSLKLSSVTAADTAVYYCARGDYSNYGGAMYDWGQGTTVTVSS VL: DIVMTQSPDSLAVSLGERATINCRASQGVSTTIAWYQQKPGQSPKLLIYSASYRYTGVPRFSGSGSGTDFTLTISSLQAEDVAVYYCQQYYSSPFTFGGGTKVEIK	0.0132
TIGIT-006-H5L1 (antibody, V domains shown, Humanized anti-TIGIT antibody) VH: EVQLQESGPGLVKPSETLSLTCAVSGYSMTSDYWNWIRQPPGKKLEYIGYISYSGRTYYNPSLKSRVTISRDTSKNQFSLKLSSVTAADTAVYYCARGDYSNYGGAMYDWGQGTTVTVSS VL: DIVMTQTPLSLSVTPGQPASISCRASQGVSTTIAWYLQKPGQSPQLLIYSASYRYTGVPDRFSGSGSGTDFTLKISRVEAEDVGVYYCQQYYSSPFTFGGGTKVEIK	0.0182
TIGIT-070-H3L3 (antibody, V domains shown, Humanized anti-TIGIT antibody) VH: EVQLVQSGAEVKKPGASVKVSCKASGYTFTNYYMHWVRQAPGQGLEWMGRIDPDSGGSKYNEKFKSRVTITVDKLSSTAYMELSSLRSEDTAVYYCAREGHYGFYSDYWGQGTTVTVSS VL: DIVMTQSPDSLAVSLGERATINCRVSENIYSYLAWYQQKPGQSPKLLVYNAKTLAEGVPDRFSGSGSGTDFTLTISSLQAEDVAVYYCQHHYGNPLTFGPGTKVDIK	0.0142

Continue with the next binder.
Prompt: Quick check: EC50 of TIGIT-002-H4L1 (antibody, V domains shown, Humanized anti-TIGIT antibody) VH: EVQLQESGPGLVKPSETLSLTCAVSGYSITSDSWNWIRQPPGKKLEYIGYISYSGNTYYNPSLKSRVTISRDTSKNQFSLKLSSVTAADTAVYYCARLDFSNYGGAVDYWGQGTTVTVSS VL: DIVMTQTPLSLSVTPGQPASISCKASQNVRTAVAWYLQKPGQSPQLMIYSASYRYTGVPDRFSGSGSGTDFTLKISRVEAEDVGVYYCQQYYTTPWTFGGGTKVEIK ?
Response: 0.0206
